Test system: antiserum R771
PROCEDURE_TEXT: Competitive inhibition ELISA for neoepitope specificity of the antiserum
Format: binding, rabbit
CONDITION_PARAMETERS: competitive inhibition ELISA, FIG. 1A and B
PROPERTY_LABEL: competition by / binding of the antibody to competing synthetic peptide

# SUBSTANCE, RECORDED_RESULT
measured = [
    ("(i): one-residue truncation of the immunizing peptide at the C terminus (CGEAGKP; listed as Homo sapiens)", "negligible"),
    ("(vi): immunizing peptide with glutamic acid and alanine residues inverted (CGAEGKPG; listed as Homo sapiens)", "negligible binding"),
    ("(ii): one-residue extension of the immunizing peptide at the C terminus (CGEAGKPGK; listed as Homo sapiens)", "negligible"),
    ("(v): immunizing peptide with deletion of the alanine residue (CGEGKPG; listed as Homo sapiens)", "negligible binding"),
]
